- Species on record: Homo sapiens
- Assay Info: Inhibition of TCEP-treated human SOD1 G93A mutant aggregation at 50 uM measured after 24 hrs by thioflavin-T fluorescence assay relative to control
Assay Readout: inhibition (%)
Answer in %, number only, no unit symbol.

See these solved cases before continuing.
Data request: Fill in: inhibition of `CCn1c2ccccc2c2cc(NC(=O)NNC(=O)NCCc3ccccc3)ccc21` is ___
Data returned: 44.5

Data request: Okay, and `CCn1c2ccccc2c2cc(NC(=O)NNC(=S)Nc3ccc(F)cc3)ccc21` ?
Data returned: 80.7

Data request: What do we get for `CCn1c2ccccc2c2cc(NC(=O)NNC(=O)Nc3ccc(OC(F)(F)F)cc3)ccc21` ?
Data returned: 73.8

Data request: Entry to check: `CCn1c2ccccc2c2cc(NC(=O)NNC(=O)Nc3ccc(OC)cc3)ccc21`
Data returned: 61.8

Data request: And `CCn1c2ccccc2c2cc(NC(=O)NNC(=S)Nc3ccc(OC(F)(F)F)cc3)ccc21` ?
Data returned: 72.3

Data request: Queued: `CCn1c2ccccc2c2cc(NC(=O)NNC(=O)NCc3ccccc3)ccc21`
Data returned: 25.1

Further cases:
Data request: # input compound: `CCn1c2ccccc2c2cc(NC(=O)NNC(=O)Nc3ccccc3)ccc21` ; wanted: its inhibition
Data returned: 63.4
